Answer each item with its documented Degradation rate constant.
# assay_summary: Peptide stability in a human colon model (pooled human faecal slurry, anaerobic)
# Format: in vitro ADME
# particulars: HCM, fitted to exponential (one-phase, first-order) decay model, plateau 0.0
Square brackets hold non-standard residues; d marks the D form. Peptide text beside a SMILES is read from it.
Give bare numbers, in h⁻¹.

Answered examples (3):
>>> assay_result("CC[C@@H](C)[C@H]1NC(=O)[C@@H](Cc2ccc(O)cc2)NC(=O)[C@@H](N)CSSC[C@@H](C(=O)N2CCC[C@H]2C(=O)N[C@H](CC(C)C)C(=O)NCC(N)=O)NC(=O)[C@H](CC(N)=O)NC(=O)[C@H](CCC(N)=O)NC1=O [Peptide P4]")
0.108
>>> assay_result("CC[C@H](C)[C@@H]1NC(=O)[C@H](Cc2ccc(O)cc2)NC(=O)[C@@H](N)CSSC[C@@H](C(=O)N2CCC[C@H]2C(=O)N[C@@H](CC(C)C)C(=O)NCC(N)=O)NC(=O)[C@H](CC(N)=O)NC(=O)[C@H](CCC(N)=O)NC1=O [Oxytocin, oxytocin, reference compound]")
1.62
>>> assay_result("CC[C@@H](C)[C@H]1NC(=O)[C@@H](Cc2ccc(O)cc2)NC(=O)[C@@H](N)CSSC[C@@H](C(=O)N2CCC[C@H]2C(=O)N[C@@H](CC(C)C)C(=O)NCC(N)=O)NC(=O)[C@H](CC(N)=O)NC(=O)[C@H](CCC(N)=O)NC1=O [Peptide P8]")
2.33

So for CC[C@@H](C)[C@@H](NC(=O)[C@@H](Cc1ccc(O)cc1)NC(=O)[C@H](C)N)C(=O)N[C@@H](CCC(N)=O)C(=O)N[C@@H](CC(N)=O)C(=O)N[C@@H](C)C(=O)N1CCC[C@H]1C(=O)N[C@@H](CC(C)C)C(=O)NCC(N)=O [Peptide P10] (H-A[dY][dI]QNAPLG-NH2) , the logged Degradation rate constant turned out to be 2.05

====

# assay_summary: Peptide stability in a human colon model (pooled human faecal slurry, anaerobic)
# Format: in vitro ADME
# particulars: human, human colon model (pooled human faecal slurry, anaerobic); HCM, after 1.5 h; read-out: peptide degraded by the HCM
observation_type: metabolised at 1.5 h, 1 mg/mL (%)
Numbers only, in %.

So for CC[C@H](C)[C@@H]1NC(=O)[C@H](Cc2ccc(O)cc2)NC(=O)[C@@H](NC(C)=O)CSSC[C@@H](C(=O)N2CCC[C@H]2C(=O)N[C@@H](CC(C)C)C(=O)NCC(N)=O)NC(=O)[C@H](CC(N)=O)NC(=O)[C@H](CCC(N)=O)NC1=O [Peptide P2] , the logged metabolised at 1.5 h, 1 mg/mL turned out to be 97.2

====

# assay_summary: Peptide stability in a human colon model (pooled human faecal slurry, anaerobic)
# Type: in vitro ADME
# particulars: human, human colon model (pooled human faecal slurry, anaerobic), HCM, after 1.5 h incubation, 1 mg/mL, n = 3; read-out: peptide remaining intact (of starting concentration)
Bridge positions count the residues as written; N and C are the ends. Square brackets hold non-standard residues; d marks the D form. Peptide text beside a SMILES is read from it.
observation_type: remaining at 1.5 h, 1 mg/mL (%)
Numbers only, in %.

Answered examples (3):
>>> assay_result("CC[C@@H](C)[C@H]1NC(=O)[C@@H](Cc2ccc(O)cc2)NC(=O)[C@H](C)NC(=O)CSC[C@@H](C(=O)N2CCC[C@H]2C(=O)N[C@H](CC(C)C)C(=O)NCC(N)=O)NC(=O)[C@H](CC(N)=O)NC(=O)[C@H](CCC(N)=O)NC1=O [Peptide P5] ({CH2CO}-A[dY][dI]QNCP[dL]G-NH2; thioether N-6)")
95.2
>>> assay_result("CC[C@H](C)[C@@H]1NC(=O)[C@H](Cc2ccc(O)cc2)NC(=O)[C@@H](N)CSSC[C@@H](C(=O)N2CCC[C@H]2C(=O)N[C@H](CC(C)C)C(=O)NCC(N)=O)NC(=O)[C@H](CC(N)=O)NC(=O)[C@H](CCC(N)=O)NC1=O [Peptide P7]")
22.3
>>> assay_result("CC[C@@H](C)[C@@H](NC(=O)[C@@H](Cc1ccc(O)cc1)NC(=O)[C@H](C)N)C(=O)N[C@@H](CCC(N)=O)C(=O)N[C@@H](CC(N)=O)C(=O)N[C@@H](C)C(=O)N1CCC[C@H]1C(=O)N[C@H](CC(C)C)C(=O)NCC(N)=O [Peptide P11] (H-A[dY][dI]QNAP[dL]G-NH2)")
64.2

// below: remaining at 1.5 h, 1 mg/mL requested for another compound
So for CC[C@H](C)[C@@H]1NC(=O)[C@H](Cc2ccc(O)cc2)NC(=O)[C@H](C)NC(=O)CSC[C@@H](C(=O)N2CCC[C@H]2C(=O)N[C@@H](CC(C)C)C(=O)NCC(N)=O)NC(=O)[C@H](CC(N)=O)NC(=O)[C@H](CCC(N)=O)NC1=O [Peptide P3] ({CH2CO}-AYIQNCPLG-NH2; thioether N-6) , the logged remaining at 1.5 h, 1 mg/mL turned out to be 34.4

====

# assay_summary: Peptide stability in a human colon model (pooled human faecal slurry, anaerobic)
# Format: in vitro ADME
# particulars: HCM, fitted to exponential (one-phase, first-order) decay model, plateau 0.0
observation_type: Degradation rate constant (h⁻¹)
One number for each entry, in h⁻¹.

>>> assay_result("CC[C@H](C)[C@@H]1NC(=O)[C@H](Cc2ccc(O)cc2)NC(=O)[C@@H](NC(C)=O)CSSC[C@@H](C(=O)N2CCC[C@H]2C(=O)N[C@@H](CC(C)C)C(=O)NCC(N)=O)NC(=O)[C@H](CC(N)=O)NC(=O)[C@H](CCC(N)=O)NC1=O [Peptide P2]")
3.17
>>> assay_result("CC[C@H](C)[C@@H]1NC(=O)[C@H](Cc2ccc(O)cc2)NC(=O)[C@@H](N)CSCc2cccc(c2)CSC[C@@H](C(=O)N2CCC[C@H]2C(=O)N[C@@H](CC(C)C)C(=O)NCC(N)=O)NC(=O)[C@H](CC(N)=O)NC(=O)[C@H](CCC(N)=O)NC1=O [Peptide P6]")
5.39

So for CC[C@H](C)[C@@H]1NC(=O)[C@H](Cc2ccc(O)cc2)NC(=O)[C@@H](N)CSSC[C@@H](C(=O)N2CCC[C@H]2C(=O)N[C@H](CC(C)C)C(=O)NCC(N)=O)NC(=O)[C@H](CC(N)=O)NC(=O)[C@H](CCC(N)=O)NC1=O [Peptide P7] , the logged Degradation rate constant turned out to be 1.05
